target: Mur pathway (MurA-MurF) enzymes from Mtb; assay: one-pot assay reconstructing the Mur pathway (Pi release), inhibitor studies; conditions: six compound concentrations 5-100 μM; 15 min pre-incubation, 30 min at 37 °C; 5% DMSO control
Each record here notes measured IC50.
measure: IC50 (µM)

* O=C(O)c1cc(-c2ccc(/C=C3/SC(=S)N(c4cccc([N+](=O)[O-])c4)C3=O)o2)ccc1Cl | 8.25
* O=C(O)c1cc(-c2ccc(/C=C3/SC(=S)N(c4ccc([N+](=O)[O-])cc4)C3=O)o2)ccc1Cl | 19.6
* N[C@@H]1CON=C1O [D-Cycloserine, reference compound] | 74

* * *

Each entry below carries its measured pIC50, system: MurF (Mycobacterium tuberculosis, UniProt P9WJL1).
Sequence (P9WJL1 whole entry): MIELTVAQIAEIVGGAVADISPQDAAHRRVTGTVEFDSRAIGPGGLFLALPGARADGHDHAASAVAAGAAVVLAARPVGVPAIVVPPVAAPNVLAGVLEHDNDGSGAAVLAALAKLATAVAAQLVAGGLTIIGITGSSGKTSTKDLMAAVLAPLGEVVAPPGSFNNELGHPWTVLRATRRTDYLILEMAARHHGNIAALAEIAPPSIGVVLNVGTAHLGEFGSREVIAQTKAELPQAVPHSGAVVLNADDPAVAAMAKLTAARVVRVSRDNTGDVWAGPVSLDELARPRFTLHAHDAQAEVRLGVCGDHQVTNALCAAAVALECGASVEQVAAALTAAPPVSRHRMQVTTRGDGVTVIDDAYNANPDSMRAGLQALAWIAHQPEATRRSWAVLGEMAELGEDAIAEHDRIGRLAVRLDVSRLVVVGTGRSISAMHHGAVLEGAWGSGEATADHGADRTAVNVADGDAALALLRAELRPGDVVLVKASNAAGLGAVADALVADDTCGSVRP
pIC50: −log10 of the molar value.
measure: pIC50

* O=C(O)c1cc(-c2ccc(/C=C3/SC(=S)N(c4cccc([N+](=O)[O-])c4)C3=O)o2)ccc1Cl | 4.59
* N[C@@H]1CON=C1O [D-Cycloserine, reference compound] | 4.17
* O=C(O)c1cc(-c2ccc(/C=C3/SC(=S)N(c4ccc([N+](=O)[O-])cc4)C3=O)o2)ccc1Cl | 4.34

* * *

biological target: MurE (Mycobacterium tuberculosis); experiment: inhibition of individual Mur enzyme: MurE; type: biochemical
Sequence (P9WJL3 whole entry): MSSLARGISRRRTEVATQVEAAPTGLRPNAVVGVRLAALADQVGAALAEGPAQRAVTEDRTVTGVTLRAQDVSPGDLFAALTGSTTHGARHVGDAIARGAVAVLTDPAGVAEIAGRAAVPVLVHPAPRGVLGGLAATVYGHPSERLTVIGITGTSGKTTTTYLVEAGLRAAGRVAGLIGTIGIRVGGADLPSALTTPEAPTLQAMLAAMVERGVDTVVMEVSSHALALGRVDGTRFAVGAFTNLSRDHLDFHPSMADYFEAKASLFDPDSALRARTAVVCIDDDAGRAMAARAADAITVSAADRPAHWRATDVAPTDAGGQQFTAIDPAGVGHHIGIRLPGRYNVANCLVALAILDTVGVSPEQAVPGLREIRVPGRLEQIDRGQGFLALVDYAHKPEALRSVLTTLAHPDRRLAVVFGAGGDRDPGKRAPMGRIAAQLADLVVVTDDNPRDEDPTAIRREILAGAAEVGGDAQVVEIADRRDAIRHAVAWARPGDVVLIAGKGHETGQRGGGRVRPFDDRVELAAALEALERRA
measure: IC50

- O=C(O)c1cc(-c2ccc(/C=C3/SC(=S)N(c4ccc([N+](=O)[O-])cc4)C3=O)o2)ccc1Cl [Compound 3]: 61.6 µM
- O=C(O)c1cc(-c2ccc(/C=C3/SC(=S)N(c4cccc([N+](=O)[O-])c4)C3=O)o2)ccc1Cl [Compound 4]: 17 µM
